# Test Target: UDP-N-acetylmuramoylalanine--D-glutamate ligase (Escherichia coli K-12, UniProt P14900)
# Sequence (P14900 whole entry): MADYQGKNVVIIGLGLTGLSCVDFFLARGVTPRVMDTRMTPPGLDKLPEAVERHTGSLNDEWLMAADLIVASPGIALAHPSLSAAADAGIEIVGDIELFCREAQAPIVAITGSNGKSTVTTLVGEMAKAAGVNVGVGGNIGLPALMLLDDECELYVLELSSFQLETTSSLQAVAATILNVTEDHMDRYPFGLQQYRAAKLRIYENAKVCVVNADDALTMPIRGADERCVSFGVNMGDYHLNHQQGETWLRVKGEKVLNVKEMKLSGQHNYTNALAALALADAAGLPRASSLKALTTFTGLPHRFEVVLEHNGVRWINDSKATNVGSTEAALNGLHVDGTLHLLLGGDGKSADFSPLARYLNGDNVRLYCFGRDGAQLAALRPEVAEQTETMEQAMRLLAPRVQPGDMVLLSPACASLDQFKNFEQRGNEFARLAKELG
# Protocol Notes: Partial non-competitive inhibition of Escherichia coli MurD using UMA substrate by steady-state enzyme kinetics assay
Result Type: Ki (µM)
Write the number in µM without appending the unit.

Report Ki for Cc1cc(/C=C2/S/C(=N/c3ccc(Cl)cc3)NC2=O)c(C)n1-c1cc(C(=O)O)cc(C(=O)O)c1 29

---

# Test Target: UDP-N-acetylmuramoyl-L-alanyl-D-glutamate--2,6-diaminopimelate ligase (Escherichia coli (strain K12))
# Sequence (P22188 whole entry): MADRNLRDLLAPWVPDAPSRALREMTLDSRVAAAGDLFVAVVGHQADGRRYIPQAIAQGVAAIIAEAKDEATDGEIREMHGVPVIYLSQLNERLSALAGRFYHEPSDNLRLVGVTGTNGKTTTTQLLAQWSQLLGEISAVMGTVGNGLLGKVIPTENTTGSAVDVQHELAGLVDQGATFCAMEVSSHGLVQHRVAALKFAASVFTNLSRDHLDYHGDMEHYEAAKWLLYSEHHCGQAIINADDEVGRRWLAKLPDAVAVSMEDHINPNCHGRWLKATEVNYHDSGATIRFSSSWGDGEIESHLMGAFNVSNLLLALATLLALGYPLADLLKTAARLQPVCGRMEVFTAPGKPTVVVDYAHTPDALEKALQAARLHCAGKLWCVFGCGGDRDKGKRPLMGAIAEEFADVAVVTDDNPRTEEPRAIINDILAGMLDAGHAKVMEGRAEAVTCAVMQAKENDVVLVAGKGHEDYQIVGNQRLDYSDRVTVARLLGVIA
# Protocol Notes: Inhibition of Escherichia coli MurE after 15 mins in presence of 0.005% Triton X-114 by Malachite green assay
Attribute: pIC50
# reply with the number alone; pIC50 is -log10 of concentration in mol/L

# annotated cases, reported pIC50 shown
Report pIC50 for Cc1cc(/C=C2/S/C(=N/c3ccc(Br)cc3)NC2=O)c(C)n1-c1cc(C(=O)O)cc(C(=O)O)c1 4.05

Report pIC50 for Cc1cc(/C=C2/S/C(=N/c3ccc(Cl)cc3)NC2=O)c(C)n1-c1cc(C(=O)O)cc(C(=O)O)c1 4.03

Report pIC50 for Cc1cc(/C=C2/C(=O)NC(=S)N(c3ccccc3F)C2=O)c(C)n1-c1cc(C(=O)O)cc(C(=O)O)c1 3.51

Report pIC50 for O=C1NC(=S)N(c2ccc(Cl)cc2)C(=O)/C1=C\c1cc2ccccc2[nH]1 4.36

Report pIC50 for Cc1cc(/C=C2/C(=O)NC(=O)N(c3ccc(Br)cc3)C2=O)c(C)n1-c1cc(C(=O)O)cc(C(=O)O)c1 3.68

Further cases:
Report pIC50 for Cc1ccc(/N=C2\NC(=O)/C(=C\c3cc(C)n(-c4cc(C(=O)O)cc(C(=O)O)c4)c3C)S2)cc1 3.61

Report pIC50 for Cc1cc(/C=C2/S/C(=N/c3ccccc3)NC2=O)c(C)n1-c1cc(C(=O)O)cc(C(=O)O)c1 3.31

Report pIC50 for CCc1ccc(N2C(=O)NC(=O)/C(=C/c3cc(C)n(-c4cc(C(=O)O)cc(C(=O)O)c4)c3C)C2=O)cc1 3.48

Report pIC50 for COc1ccc(/N=C2\NC(=O)/C(=C\c3cc(C)n(-c4cc(C(=O)O)cc(C(=O)O)c4)c3C)S2)cc1 3.52
